Form field: switch fluorescence ratio (one value per entry).
# System: ATP;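 further: ATP exposure 15 min at 22 °C before imaging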
# method.summary: switch fluorescence ratio, 500 uM ATP over buffer (Cy3 cluster intensity, sum of 5 cycles each) (fold (ratio)); higher = stronger signal-on switching upon ATP binding; sequences stand for … in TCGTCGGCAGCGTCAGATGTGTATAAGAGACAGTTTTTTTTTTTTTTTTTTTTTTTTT…TC
# condition.context: aptamer strand: ATP DNA aptamer (quencher-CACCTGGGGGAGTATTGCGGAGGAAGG + anchor), 100 nM annealed; ATP concentration: 500 uM
Respond using a number only.

// switch fluorescence ratio lookup, key: `TCGTGTAAAC`
0.981

Given the sequence `GTTTAAGGCC` , what is its reported switch fluorescence ratio?
1.01

Query: switch fluorescence ratio; subject: `CGTCTAAGGT`
0.98

State the recorded switch fluorescence ratio for this entry: `GTTGACGTTG`
0.991

Could you share which switch fluorescence ratio value was measured for `AGGATATTGG` ?
1.01

Using the record for `GTAACCGGTA` , report its switch fluorescence ratio.
1.02

Any idea what its switch fluorescence ratio is? The sequence is `CGGTTGTTGT`
1.01

---

# Tested on: ATP;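 further: ATP exposure 15 min at 22 °C before imaging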
# method.summary: switch fluorescence ratio, 500 uM ATP over buffer (Cy3 cluster intensity, sum of 5 cycles each) (fold (ratio)); higher = stronger signal-on switching upon ATP binding; sequences stand for … in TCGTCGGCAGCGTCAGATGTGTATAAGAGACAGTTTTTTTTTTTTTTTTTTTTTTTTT…TC
# condition.context: aptamer strand: ATP DNA aptamer (quencher-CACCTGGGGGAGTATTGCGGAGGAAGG + anchor), 100 nM annealed; ATP concentration: 500 uM
quantity.measured: switch fluorescence ratio
I'd appreciate a reply containing only the number, no unit.

primary_sequence=ACGGGGGAGT measured_number=1.03

State its switch fluorescence ratio on ATP: `AATGTGCAAA`
1.01

Provide the documented switch fluorescence ratio with ATP as the system for `GGATTAGCTT`
1.01

Tell me reported switch fluorescence ratio for `GATCTAAAAC` , tested with ATP.
0.959

Item `TCGAAGTAGG` with ATP - switch fluorescence ratio?
1.46

---

Below: a set of entries, each annotated with reported switch fluorescence ratio.
# Test system: ATP;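 further: ATP exposure 15 min at 22 °C before imaging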
# method.summary: switch fluorescence ratio, 500 uM ATP over buffer (Cy3 cluster intensity, sum of 5 cycles each) (fold (ratio)); higher = stronger signal-on switching upon ATP binding; sequences stand for … in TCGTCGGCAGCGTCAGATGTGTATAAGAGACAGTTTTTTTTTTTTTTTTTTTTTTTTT…TC
# condition.context: aptamer strand: ATP DNA aptamer (quencher-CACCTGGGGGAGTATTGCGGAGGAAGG + anchor), 100 nM annealed; ATP concentration: 500 uM
# respond with the number and nothing more

Reference set, count: 6
primary_sequence=AGGTAGTGGG quantity_measured="switch fluorescence ratio" measured_number=0.974
primary_sequence=TGGGGCGTCT quantity_measured="switch fluorescence ratio" measured_number=1.01
primary_sequence=GAGTGGGGGC quantity_measured="switch fluorescence ratio" measured_number=1.01
primary_sequence=GTGTTAGTCG quantity_measured="switch fluorescence ratio" measured_number=1.02
primary_sequence=AGGGGTAGTT quantity_measured="switch fluorescence ratio" measured_number=1.01
primary_sequence=TTCTGGATCT quantity_measured="switch fluorescence ratio" measured_number=0.996

Data request, read-out switch fluorescence ratio, for `TGTCGGGGTT`
0.993

Quick one: switch fluorescence ratio of `TGGTATGGGG` ?
1.03

Which switch fluorescence ratio is listed for `GGGATTCTTA` ?
0.996

---

Quick reference for switch fluorescence ratio among some sequences
# Test system: ATP;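 further: ATP exposure 15 min at 22 °C before imaging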
# method.summary: switch fluorescence ratio, 500 uM ATP over buffer (Cy3 cluster intensity, sum of 5 cycles each) (fold (ratio)); higher = stronger signal-on switching upon ATP binding; sequences stand for … in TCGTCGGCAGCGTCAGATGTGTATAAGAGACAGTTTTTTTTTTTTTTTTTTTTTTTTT…TC
# condition.context: aptamer strand: ATP DNA aptamer (quencher-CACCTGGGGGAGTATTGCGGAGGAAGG + anchor), 100 nM annealed; ATP concentration: 500 uM
The answer should be written as a number, with no unit following it.

See these solved cases before continuing.
primary_sequence=TAGGACCTGT quantity_measured="switch fluorescence ratio" measured_number=0.985
primary_sequence=AAGTGCAGCC quantity_measured="switch fluorescence ratio" measured_number=1.01
primary_sequence=TTGTTGGTAC quantity_measured="switch fluorescence ratio" measured_number=1.15
primary_sequence=GGGATCGTAC quantity_measured="switch fluorescence ratio" measured_number=1.07
primary_sequence=TTTCGGGGCT quantity_measured="switch fluorescence ratio" measured_number=1

Which switch fluorescence ratio value is on record for `GAGGTTTTTG` ?
0.994

Given the sequence `AAAATAAGGA` , what is its reported switch fluorescence ratio?
0.986

Query (sequence): `GCGGTTTAAG` ; field requested: switch fluorescence ratio
1

State the recorded switch fluorescence ratio for this entry: `GTGGTTCCCG`
1

Consider the sequence `CAGAGACCTG` and give its measured switch fluorescence ratio.
1.02

Quick check: switch fluorescence ratio of `GGTGGCGGAA` ?
0.996

Give its switch fluorescence ratio value. Item: `ACTGTTAGCA`
1.06

Entry `TGGTTGAATT` : reported switch fluorescence ratio = ?
0.992

# get_value(readout='switch fluorescence ratio', item= `GCGCAAAATT` )
0.997

# switch fluorescence ratio lookup, item `ACACTTTACT`
1.32

I have this sequence here, `AGTCTAGAGA` , and I need its recorded switch fluorescence ratio.
1.01

Need switch fluorescence ratio, item `TAATTTTGGG`
0.999

Field request: switch fluorescence ratio | item: `GAAATAGTTT`
1.02

What measured switch fluorescence ratio goes with `TTGCACGGTT` ?
1.04

Give its switch fluorescence ratio value. Item: `CGGGAATCTC`
1.08

Which value of switch fluorescence ratio has been reported for `GATCACAGGG` in the records?
1.13

Field request: switch fluorescence ratio | item: `GACATGGCAG`
1.02

What does the record list as switch fluorescence ratio for `TTTAATAGTT` ?
1.03

Can you look up the measured switch fluorescence ratio of `TTAATGTGAT` for me?
1

Return reported switch fluorescence ratio; argument: `CAGGCATGAG`
1.01

---

# System: ATP;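 further: ATP exposure 15 min at 22 °C before imaging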
# method.summary: switch fluorescence ratio, 500 uM ATP over buffer (Cy3 cluster intensity, sum of 5 cycles each) (fold (ratio)); higher = stronger signal-on switching upon ATP binding; sequences stand for … in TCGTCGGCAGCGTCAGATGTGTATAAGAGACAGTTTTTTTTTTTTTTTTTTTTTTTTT…TC
# condition.context: aptamer strand: ATP DNA aptamer (quencher-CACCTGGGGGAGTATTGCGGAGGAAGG + anchor), 100 nM annealed; ATP concentration: 500 uM
Binary classification by switch fluorescence ratio, with 1 as an inclusive lower bound for 1; all other cases are -1.

# check: switch fluorescence ratio of `GAGTGGGGAG` is greater than or equal to 1
-1

Kindly determine if switch fluorescence ratio recorded for `CCGGGGGAGG` is above or exactly 1.
1

---

Below, each entry is listed with its recorded switch fluorescence ratio.
# Tested on: ATP;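 further: ATP exposure 15 min at 22 °C before imaging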
# method.summary: switch fluorescence ratio, 500 uM ATP over buffer (Cy3 cluster intensity, sum of 5 cycles each) (fold (ratio)); higher = stronger signal-on switching upon ATP binding; sequences stand for … in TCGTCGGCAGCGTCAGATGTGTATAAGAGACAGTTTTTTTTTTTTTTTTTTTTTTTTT…TC
# condition.context: aptamer strand: ATP DNA aptamer (quencher-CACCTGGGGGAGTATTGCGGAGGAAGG + anchor), 100 nM annealed; ATP concentration: 500 uM
# print the numeric value only

primary_sequence=GTTATTATGG measured_number=1.01
primary_sequence=TCTCTATCCG measured_number=0.997
primary_sequence=GATTTTAGTC measured_number=0.993
primary_sequence=GGAAGTAAAA measured_number=1.03
primary_sequence=TTTTTTAACG measured_number=0.997
primary_sequence=GGCGGTATAT measured_number=0.99

Recorded switch fluorescence ratio for `TCGGTACGG` with ATP, please?
1.07

State its switch fluorescence ratio on ATP: `TAAGTTCCTG`
1

Any idea what switch fluorescence ratio came out for `TCACTGGGTT` on ATP?
1.01

Form field - read-out: switch fluorescence ratio; system: ATP; submitted item: `TATTGACTTT`;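 further: ATP exposure 15 min at 22 °C before imaging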
1.28

Observed switch fluorescence ratio on ATP for `GCATGGGCTG` , please.
1.04

Kindly state the measured switch fluorescence ratio obtained for `GTTGAGTTGA` with ATP.
1.01

Which measured switch fluorescence ratio belongs to `TAGGTCATGG` , tested on ATP?;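 further: ATP exposure 15 min at 22 °C before imaging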
0.985

Param readout= switch fluorescence ratio; system= ATP; entry= `ATTGGGAATA` ; returns value.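 Further: ATP exposure 15 min at 22 °C before imaging.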
0.986

Query the reported switch fluorescence ratio for ATP; item: `TTTTTCAGAT`
1.03

// map `AGACTCTGGT` to recorded switch fluorescence ratio (system: ATP);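 further: ATP exposure 15 min at 22 °C before imaging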
0.969

Record lookup: for ATP, what switch fluorescence ratio belongs to `AGGGGTATTA` ?
1
